- subject.of.test: EHMT2 (Homo sapiens)
- Construct: host or cells: MDA-MB-231
- Sequence (Q96KQ7 whole entry): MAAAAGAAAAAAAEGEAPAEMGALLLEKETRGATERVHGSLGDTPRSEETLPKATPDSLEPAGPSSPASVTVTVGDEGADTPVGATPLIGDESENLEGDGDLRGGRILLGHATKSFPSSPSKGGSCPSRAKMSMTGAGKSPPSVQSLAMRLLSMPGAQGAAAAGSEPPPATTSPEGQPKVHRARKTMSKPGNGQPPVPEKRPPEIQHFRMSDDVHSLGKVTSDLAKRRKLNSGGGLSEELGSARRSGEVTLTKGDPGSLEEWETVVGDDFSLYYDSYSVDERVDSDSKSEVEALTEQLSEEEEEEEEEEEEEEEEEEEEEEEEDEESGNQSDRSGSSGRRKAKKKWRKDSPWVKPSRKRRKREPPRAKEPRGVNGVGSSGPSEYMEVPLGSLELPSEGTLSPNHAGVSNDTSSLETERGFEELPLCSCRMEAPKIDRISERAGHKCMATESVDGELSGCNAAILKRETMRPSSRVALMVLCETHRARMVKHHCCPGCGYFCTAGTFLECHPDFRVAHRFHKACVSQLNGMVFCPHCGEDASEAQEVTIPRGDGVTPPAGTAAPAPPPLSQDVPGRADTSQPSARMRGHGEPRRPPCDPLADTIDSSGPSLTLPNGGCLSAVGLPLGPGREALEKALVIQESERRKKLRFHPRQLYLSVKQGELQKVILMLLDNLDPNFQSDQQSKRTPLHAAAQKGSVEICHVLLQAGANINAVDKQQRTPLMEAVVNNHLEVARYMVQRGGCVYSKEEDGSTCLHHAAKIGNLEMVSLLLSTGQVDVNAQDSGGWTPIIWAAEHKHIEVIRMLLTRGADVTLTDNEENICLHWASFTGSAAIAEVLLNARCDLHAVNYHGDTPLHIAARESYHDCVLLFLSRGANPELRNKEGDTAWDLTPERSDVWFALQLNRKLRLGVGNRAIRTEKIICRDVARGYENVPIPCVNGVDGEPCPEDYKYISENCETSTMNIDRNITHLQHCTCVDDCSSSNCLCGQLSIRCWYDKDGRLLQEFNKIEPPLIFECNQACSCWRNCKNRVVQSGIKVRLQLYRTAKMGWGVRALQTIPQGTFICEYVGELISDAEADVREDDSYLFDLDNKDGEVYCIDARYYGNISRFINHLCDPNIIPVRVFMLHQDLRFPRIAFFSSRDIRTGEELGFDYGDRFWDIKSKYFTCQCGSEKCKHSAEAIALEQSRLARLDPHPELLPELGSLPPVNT
- experimental.details: MDA-MB-231 H3K9me2 in-cell Western assay (EHMT2 ICW)
- Assay type: cell-based
- condition.label: Table VI; read-out: EHMT2 ICW IC50
Reported IC50 values for the following molecules.

molecule | IC50
CNc1cc(C2CCN(C3CCOC3)CC2)c2cc(OC)c(OCCCN3CCCC3)cc2n1 (stereo not shown) [Compound 758] | < 100 nM
COc1cc2c(C3CCN(C)C3)nc(C)nc2cc1OCCCN1CCCC1 (stereo not shown) [Compound 745] | > 10000 nM
CNC[C@@H](COc1cc(Nc2nccc(NC)n2)ccc1OC)OC [Compound 922] | > 10000 nM
CNc1nc2cc(OCCCN3CCCC3)c(OC)cc2cc1Cl [Compound 903] | 1000 to 10000 nM
CNCC(C)NCc1cc(Nc2nc(C)cc(NC)n2)ccc1OC (stereo not shown) [Compound 1037] | 100 to 1000 nM
CNc1nc(C2CCCN(C)C2)c2cc(OC)c(OCCCN3CCCC3)cc2n1 (stereo not shown) [Compound 746] | > 10000 nM
CNc1cc(C)nc(Nc2ccc(OC)c(C#CC3CCN(C)C3)c2)n1 (stereo not shown) [Compound 847] | 1000 to 10000 nM
CCN1CC[C@@H](COc2cc3nc(C)cc(C4CCN(C(C)C)CC4)c3cc2OC)C1 [Compound 663] | 100 to 1000 nM
COc1cnc(NC(=O)/C=C/CN(C)C)cc1OCCCN1CCCC1 [Compound 640] | > 10000 nM
COc1cc2c(C)nc(N3CCNCC3)nc2cc1OCCCN1CCCC1 [Compound 739] | > 10000 nM
COc1cc(NC2CCNCC2)ncc1OCC1CCNC1 (stereo not shown) [Compound 629] | > 10000 nM
CNc1cc(C2CCCCC2)c2cc(OC)c(OCCCN3CCCC3)cc2n1 [Compound 816] | 100 to 1000 nM
CCN1CCC(NCc2cc(Nc3nc(C)cc(NC)n3)ccc2OC)C1 (stereo not shown) [Compound 646] | 1000 to 10000 nM
COc1cc2cc(C#N)c(C)nc2cc1OCCCN1CCCC1 [Compound 895] | > 10000 nM
CCN1CCC(O)(COc2cc(Nc3nccc(NC)n3)ccc2OC)C1 (stereo not shown) [Compound 1006] | 100 to 1000 nM
COc1cc2c(C3CCN(C)CC3)c(F)c(C)nc2cc1OCCCN1CCCC1 [Compound 652] | 1000 to 10000 nM
CNC(=O)CCNc1cc(C)nc(Nc2cnc(OC)c(OCCCN3CCCC3)c2)n1 [Compound 887] | 1000 to 10000 nM
CNc1cc(C)nc(Nc2ccc(OC)c(OCCCc3nc(Cl)cn3C)c2)n1 [Compound 891] | > 10000 nM
CNc1cc(C)nc(Nc2cc(OC[C@H](O)CN3CCCC3)c(OC)cn2)n1 [Compound 886] | > 10000 nM
COc1ncc(Nc2nc(C)cc(NCC3COC3)n2)cc1OC[C@@H](O)CN1CCCC1 [Compound 883] | > 10000 nM
CCN1CC[C@@H](COc2cc(Nc3nc(NC)cc(C(C)C)n3)ccc2OC)C1 [Compound 672] | 100 to 1000 nM
CNc1ccnc(Nc2ccc(OC)c(OC[C@H](C)CN3CCC3)c2)n1 [Compound 945] | 100 to 1000 nM
CCN1CC[C@@H](COc2cc3nc(C)nc(C4CCN(C)CC4)c3cc2OC)C1 [Compound 673] | > 10000 nM
COc1cc2c(C3CCN(C)CC3)cc(C#N)nc2cc1OCCCN1CCCC1 [Compound 790] | 1000 to 10000 nM
COc1cc(Nc2ccc3[nH]ncc3n2)ncc1OCCCN1CCCC1 [Compound 648] | > 10000 nM
CNc1cc(C)nc(Nc2ccc(OC)c(OC[C@H](O)CN3CC(C)C3)c2)n1 [Compound 985] | 100 to 1000 nM
CNc1cc(C)nc(Nc2cnc(OC)c(O)c2)n1 [Compound 676] | > 10000 nM
CC(C)N1CC(COc2cnc(NC3CCNCC3)nc2)C1 [Compound 636] | > 10000 nM

This collection of values is drawn from patent US20210198277A1.
